# Tested on: Zymoseptoria tritici (SEPTTR-184)
# Assay comment: Cyp51 dsRNA tile (fragment) foliar application bioassay (Example 6)
# Format: in vivo
# Stated conditions: 3 days curative; rate 200 ppm; average of 2 trials
Parameter: Disease Control (%) SEPTTR-184 3DC
Give the value in % but do not write % after it.

# annotated cases, reported Disease Control (%) SEPTTR-184 3DC shown
MgCyp51-T2: dsRNA tile of Zymoseptoria tritici Cyp51, 165 bp, location 48-212 (nucleic acid, listed as Zymoseptoria tritici) CCAGACCAGCCTCTGGAAACTTGTCGGACTTGGATTCCTCGCCTTCAGCACGCTCGCCATCCTCCTCAATGTCCTCTCACAACTTCTCTTCCGTGGCAAGTTGTCCGATCCGCCACTCGTATTCCACTGGGTGCCCTTCATCGGAAGCACCATCACATACGGCAT: 84
MgCyp51-T9: dsRNA tile of Zymoseptoria tritici Cyp51, 172 bp, location 1-172 (nucleic acid, listed as Zymoseptoria tritici, double-stranded RNA) ATGGGTCTCCTCCAGGAAGTCCTCGCGCAGTTCGACGCGCAATTCGGCCAGACCAGCCTCTGGAAACTTGTCGGACTTGGATTCCTCGCCTTCAGCACGCTCGCCATCCTCCTCAATGTCCTCTCACAACTTCTCTTCCGTGGCAAGTTGTCCGATCCGCCACTCGTATTCC: 72
MgCyp51-T11: dsRNA tile of Zymoseptoria tritici Cyp51, 172 bp, location 775-946 (nucleic acid, listed as Zymoseptoria tritici) TCCGAGACATACATGTCGATCATTCAGAAGAGACGAGAGTCCAAAACGGGCGAACATGAGGAAGACATGATCCACAACTTGATGCAGTGCAAATACAAGGACGGCAATGCCATTCCCGACAAGGAGATTGCTCATATGATGATTGCGCTGCTCATGGCCGGCCAGCACTCTT: 42

In the following, a different molecule is considered.
Query string: Bench note: what Disease Control (%) SEPTTR-184 3DC did MgCyp51-T5: dsRNA tile of Zymoseptoria tritici Cyp51, 133 bp, location 1316-1448 (nucleic acid, listed as Zymoseptoria tritici) AATACAAGCACCTGTCCCCGACGACTGCCCTAGGAAGCATCGCCGAGGAGAAAGAAGACTATGGCTACGGCCTGGTAAGCAAGGGCGCGGCGTCGCCATACTTACCCTTTGGTGCGGGACGACACAGATGTAT show?
Result string: 78
